Quick list: PBM binding z-score per entry.
system: PPARg:RXRa IVT, anti-PPARg (NR concentration 270 nM, RXRa partner concentration 90 nM); experiment: PBM binding z-score (relative to random genomic background probes); higher = stronger binding; sequences stand for … in GC…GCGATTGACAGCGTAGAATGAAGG
Give a plain numeric answer without units written out.

Below, 5 sequences whose answers are already recorded.
TCTTGTAGACCAGCAGGTTAAGAAAGCTGGCCAA = 0.1
GATACAGGGACAGCTAGAGGCCAGAGTATGGAAA = -0.138
TCATATAGGTAACAGGTGAAAGTCGGTGTGGTAA = 4.81
CAAACTAGGTCCCAGAGGTCAAAGTCCGTGCGTA = 4.68
CCGACTGGGGCAAAGGTAACCATACTCAGTACGA = 5.05

# lookup: PPARg:RXRa IVT, anti-PPARg (NR concentration 270 nM, RXRa partner concentration 90 nM) PBM binding z-score, key = "TCTGCTAGGTCAACGATGGTCAGCCAATCTGCTA" 4.29

# lookup: PPARg:RXRa IVT, anti-PPARg (NR concentration 270 nM, RXRa partner concentration 90 nM) PBM binding z-score, key = "CAACCAAGGTGAACAAGGTCGTTGATTACTATTC" 3.05

# lookup: PPARg:RXRa IVT, anti-PPARg (NR concentration 270 nM, RXRa partner concentration 90 nM) PBM binding z-score, key = "TAGCCTAGGTCATTGGGCCGGTATAGTACGCATC" 3.19

# lookup: PPARg:RXRa IVT, anti-PPARg (NR concentration 270 nM, RXRa partner concentration 90 nM) PBM binding z-score, key = "CGAACTAGGTCATCGACAGGACAGTGAATAGTAA" 8.42

* * *

test system: THRa:RXRa (NR concentration 90 nM, RXRa partner concentration 90 nM); test: PBM binding z-score (relative to random genomic background probes); higher = stronger binding; sequences stand for … in GC…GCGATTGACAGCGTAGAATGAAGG
PBM binding z-score of 3 or higher: T. Under 3: F.

For orientation, consider the following solved cases.
TCTTGTAGATCAACATGAGGTTAAGAAAGATCGA = F
ATCAAAAGGTCGACGAGGTGAGTATACACCGTTT = T
AGTCAAAGTTCATCTAGGTAACGTACGATATGCT = T
AATACAGGGTCATCGTTGGCCAGAGTACGCACAG = T
ATAAGTAGGTTATCGGGTCATTCAGTTTGCGCAT = T

Determine whether measured PBM binding z-score meets or exceeds 3 for "TCTAGTTGGTCACGGAGGTAACACACGACGGGTA" F

* * *

system: PPARg:RXRa (NR concentration 180 nM, RXRa partner concentration 90 nM); experiment: PBM binding z-score (relative to random genomic background probes); higher = stronger binding; sequences stand for … in GC…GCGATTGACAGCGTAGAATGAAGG
PBM binding z-score of 1 or higher: True. Under 1: False.

CACCCTAGGTCAGGGCCAGTATAGGAGGAACGTT = True
ACTAGCAGGCCCAGGGTCACTCAAGATTAGTCCG = True

Determine whether measured PBM binding z-score meets or exceeds 1 for "CCTTACGGGTCACTCCAGGTTATAGAATCGGAGT" True

Determine whether measured PBM binding z-score meets or exceeds 1 for "GCGACTGGGGAATCAGCAGGTTACCATAACTTAA" False

Determine whether measured PBM binding z-score meets or exceeds 1 for "TGAATGAGGTTATAAGAACAGGGAACGTTGCAAA" True

Determine whether measured PBM binding z-score meets or exceeds 1 for "AGTCAAAGTTCACTAGGTAACGTATGATTCAGCT" True

Determine whether measured PBM binding z-score meets or exceeds 1 for "GCTTGTAGATCAAGGTTTAGAAAGACTAAGCTAA" True

Determine whether measured PBM binding z-score meets or exceeds 1 for "GCTTGGAGATCAAGGTTAAGAAAGACTAAGCTAA" False

* * *

test system: LXRa:RXRa (NR concentration 270 nM, RXRa partner concentration 90 nM); experiment: PBM binding z-score (relative to random genomic background probes); higher = stronger binding; sequences stand for … in GC…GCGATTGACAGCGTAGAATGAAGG
MEASUREMENT_LABEL: PBM binding z-score

Below, 2 sequences whose answers are already recorded.
CGAACTAGGTCAAGGACAGTCAATCTCCGCACGC = 2.64
AGATGTAGGTTAAGGGTCATTCAGGTTGGTTCGC = 5.02

Let's switch to this sequence now.
State its PBM binding z-score for this sequence: "GGAGCGAGGGCAAGTTGATAGCAGAGTTTGATGG" 0.0427

* * *

Quick list: PBM binding z-score per entry.
system: RARb:RXRa (NR concentration 270 nM, RXRa partner concentration 90 nM); test: PBM binding z-score (relative to random genomic background probes); higher = stronger binding; sequences stand for … in GC…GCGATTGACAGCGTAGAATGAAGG

Below, 3 sequences whose answers are already recorded.
TCATATAGGTAAATGCTTGGTGAAAGTCCGATCT = 0.221
CCTACTGGGCCATTCAGAGGTCATTCATCATATG = 2.9
TCATATAGTTAAAGGTGAAAGTCGAACGATATGA = 2.05

# lookup: RARb:RXRa (NR concentration 270 nM, RXRa partner concentration 90 nM) PBM binding z-score, key = "CGTCCAAGTTCATAGGAGGTCAGTGAAGACAGAT" 4.14

# lookup: RARb:RXRa (NR concentration 270 nM, RXRa partner concentration 90 nM) PBM binding z-score, key = "AGAATGAGGTTACCAAGGATCAGGGAAACGCTTG" 2.04

# lookup: RARb:RXRa (NR concentration 270 nM, RXRa partner concentration 90 nM) PBM binding z-score, key = "CCGTCTGGGGCATAAGGTTACCATAAGCCAGCCC" 1.84

# lookup: RARb:RXRa (NR concentration 270 nM, RXRa partner concentration 90 nM) PBM binding z-score, key = "CAAACTAGGTAACCGGAAGGTCAAAGTCCGCATG" 3.35

# lookup: RARb:RXRa (NR concentration 270 nM, RXRa partner concentration 90 nM) PBM binding z-score, key = "GCTAGTTGGTCCGTAAAAGGTCACACACCGGTCG" 3.99

* * *

test system: PPARg:RXRa IVT, anti-PPARg (NR concentration 270 nM, RXRa partner concentration 90 nM); test: PBM binding z-score (relative to random genomic background probes); higher = stronger binding; sequences stand for … in GC…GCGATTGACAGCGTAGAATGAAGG
MEASUREMENT_LABEL: PBM binding z-score
Give a plain numeric answer without units written out.

Below, 3 sequences whose answers are already recorded.
TCTAGCAGTCCAGAGGGTCACTCAAGAGGTACGG = 0.15
ATATGTAGGTTATCGTGTCATTCAGTTTGCGCAT = 7.44
CAAACTAGATCAAGGTCAAAGTCGGTTTGTGCCA = 3.93

State its PBM binding z-score for this sequence: "TAGTCTAGGTCAGATCGGGCCAGTATACGCTATA" 4.5

State its PBM binding z-score for this sequence: "GCTATTAGTTGAGAGGGCAACCGAATGATTCTCG" 0.28

State its PBM binding z-score for this sequence: "TCTCGGAGGACACGAAAGGTAAGAGCTCGACATC" -0.239

State its PBM binding z-score for this sequence: "CCTACTGGCCCAAAGGTCATTGATTCCAATGCTC" 3.61

State its PBM binding z-score for this sequence: "TCTGGTTGGTCAAAGGTCACACACTCGAAATGCG" 5.67

* * *

tested on: PXR homodimer (NR concentration 270 nM); experiment: PBM binding z-score (relative to random genomic background probes); higher = stronger binding; sequences stand for … in GC…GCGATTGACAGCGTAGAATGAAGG
PBM binding z-score of 0.4 or higher: rule met. Under 0.4: rule not met.

Determine whether measured PBM binding z-score meets or exceeds 0.4 for "ACTAGCACGCCAAGTTTGGGTCACTCAAACAAAG" rule not met

* * *

test system: PPARg:RXRa 90nM:30nM, anti-RXR (NR concentration 90 nM, RXRa partner concentration 30 nM); assay: PBM binding z-score (relative to random genomic background probes); higher = stronger binding; sequences stand for … in GC…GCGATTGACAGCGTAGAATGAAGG
Quick list: PBM binding z-score per entry.

Below, 8 sequences whose answers are already recorded.
TCGTGTAGATCAATAGAGGTTAAGAAAGTGCGCT = 2.13
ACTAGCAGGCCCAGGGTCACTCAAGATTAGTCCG = 1.68
AAAATGAGGTTATACGTAGATCAGGGAAGAAAGT = 1.9
GCTTACGGGTCAAAGGTTATATCATGAATAGAAT = 11.1
CCTCGGAGGACAACATGAGGTCAGAGCTGCCAGA = 0.0899
GCATAGAGGTAATACAAGGTGAAAGTCCGATTGT = 0.729
ATCTCTAGATAACAAGTTCAGTGAAAGAGAGGAC = 0.315
TCTTGTAGATCAATAGAGGTTAACAAAGTGCGCT = 2

State its PBM binding z-score for this sequence: "TCTAGCACGCCAGAGGGTCACTCAAGAGGTACGG" 1.2

State its PBM binding z-score for this sequence: "AATACAGGGTCATCGTAGGACAGAGTACGCACAG" 4.95

State its PBM binding z-score for this sequence: "TCTTGTAGATCAAGCAGGTTAAAAAAGCCTGAGT" 1.89

State its PBM binding z-score for this sequence: "ATATGTAGGTTACATCCGGGTCACTCAGGCTATG" 4.31

State its PBM binding z-score for this sequence: "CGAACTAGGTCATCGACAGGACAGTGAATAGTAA" 5.7

State its PBM binding z-score for this sequence: "CGAACTAGGTCATTGATAGGACAGTGAATAGTAA" 5.56

State its PBM binding z-score for this sequence: "GCGACTGCGGCATCAGCAGGTTACCATAACTTAA" -0.649

State its PBM binding z-score for this sequence: "ACTAGTTGGTCAGTTGAGGTCACACACAATTCGG" 1.69

State its PBM binding z-score for this sequence: "CAGCCTAGGTCGGGGCCAGTATAGGAGGAACGTT" -0.981

State its PBM binding z-score for this sequence: "TCATATAGGTAATACAGGTGAAAATCGGCATCTA" 3.43
